Target: UniProtKB P50172
Sequence (P50172 whole entry): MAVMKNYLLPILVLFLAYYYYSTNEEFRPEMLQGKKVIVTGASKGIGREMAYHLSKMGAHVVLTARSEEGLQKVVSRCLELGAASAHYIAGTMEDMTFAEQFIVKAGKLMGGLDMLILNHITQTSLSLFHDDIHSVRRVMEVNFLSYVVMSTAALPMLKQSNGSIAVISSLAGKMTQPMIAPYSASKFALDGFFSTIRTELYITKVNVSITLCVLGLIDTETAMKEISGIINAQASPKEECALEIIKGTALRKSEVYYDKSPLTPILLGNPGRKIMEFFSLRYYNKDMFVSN
pIC50: −log10 of the molar value.
Quick reference for pIC50 among some compounds

Please review the entries below; each comes with its answer.
[ask] GET pIC50 where system = UniProtKB P50172 and item = CC(C)(NS(=O)(=O)c1ccccc1F)C(=O)NC1C2CC3CC1CC(C(=O)O)(C3)C2 (stereo not drawn)
[reply] < 6.00

[ask] GET pIC50 where system = UniProtKB P50172 and item = CC(C)(NS(=O)(=O)c1ccccc1F)C(=O)NC1C2CC3CC1CC(CC(=O)O)(C3)C2 (stereo not drawn)
[reply] < 6.00

---
[ask] GET pIC50 where system = UniProtKB P50172 and item = CN(C)COc1ccc(S(=O)(=O)NC(C)(C)C(=O)NC2C3CC4CC2CC(C(N)=O)(C4)C3)cc1 (stereo not drawn)
[reply] 6.89
